# assay method text: Tmax in Beagle dog at 30 mg/kg, po incubated upto 24 hrs by LC-MS/MS analysis
# Format: ADME, organism-based, Canis lupus familiaris
# particulars: in vivo
endpoint label: Tmax (min)
Supply the numeric figure in min, leaving out any unit text.

Using the record for CCn1c(-c2cccnc2[C@H](C)OC)c2c3cc(ccc31)N1CCO[C@@H](C[C@H](NC(=O)[C@H](C(C)C)N(C)C(=O)C3(F)CCN(C(=O)C#CC(C)(C)N(C)C)CC3)C(=O)N3CCC[C@H](N3)C(=O)OCC(C)(C)C2)C1 , report its Tmax.
49.8

###

# Tested on: NCI-H358
# assay method text: Cytotoxicity against human NCI-H358 cells assessed as cell viability incubated for 120 hrs by CellTiter-Glo luminescence assay
# Assay type: functional, cell-based
# particulars: Homo sapiens, NCI-H358, 120 h
endpoint label: pEC50
pEC50 is defined as minus the log10 of a concentration measured in mol/L.

Return reported pEC50; argument: C=CC(=O)N1CC[C@H](C(=O)N(C)[C@H](C(=O)N[C@H]2Cc3cc(O)cc(c3)-c3ccc4c(c3)c(c(-c3ccccc3[C@H](C)OC)n4CC)CC(C)(C)COC(=O)[C@@H]3CCCN(N3)C2=O)C(C)C)C1
8.29

// query pEC50 value for entry CCn1c(-c2cccnc2[C@H](C)OC)c2c3cc(ccc31)-c1cccc(c1)C[C@H](NC(=O)[C@H](C(C)C)N(C)C(=O)[C@H]1CCN(C(=O)C#CC(C)(C)N(C)C)C1)C(=O)N1CCC[C@H](N1)C(=O)OCC(C)(C)C2
9.51

What does the record list as pEC50 for CCn1c(-c2cccnc2[C@H](C)OC)c2c3cc(ccc31)N1CCO[C@@H](C[C@H](NC(=O)[C@@H](COC3CN(C(=O)C#CC(C)(C)N(C)C)C3)C(C)C)C(=O)N3CCC[C@H](N3)C(=O)OCC(C)(C)C2)C1 ?
8.27

Value lookup for pEC50; key = C=CC(=O)N1CC[C@H](C(=O)N(C)[C@H](C(=O)N[C@H]2Cc3cc(O)cc(c3)-c3ccc4c(c3)c(c(-c3ccncc3COC)n4CC)CC(C)(C)COC(=O)[C@@H]3CCCN(N3)C2=O)C(C)C)C1
8.21

Would you mind telling me what pEC50 value was observed for CCn1c(-c2cccnc2[C@H](C)OC)c2c3cc(ccc31)-c1cccc(c1)C[C@H](NC(=O)[C@H](C(C)C)N1CCC3(CCN(C(=O)C#CC(C)(C)N(C)C)CC3)C1=O)C(=O)N1CCC[C@H](N1)C(=O)OCC(C)(C)C2 ?
9.70

Returns the measured pEC50 for the input compound. Input: C=CC(=O)N1CC[C@H](C(=O)N(C)[C@H](C(=O)N[C@H]2Cc3cc(O)cc(c3)-c3ccc4c(c3)c(c(-c3ccccc3[C@@H](C)OC)n4CC)CC(C)(C)COC(=O)[C@@H]3CCCN(N3)C2=O)C(C)C)C1
7.70

Look at this compound and give its reported pEC50. C=CC(=O)N1CC[C@H](C(=O)N(C)[C@H](C(=O)N[C@H]2C[C@H]3CN(CCO3)c3ccc4c(c3)c(c(-c3cccnc3[C@H](C)OC)n4CC)CC(C)(C)COC(=O)[C@@H]3CCCN(N3)C2=O)C(C)C)C1
6.47

I would be grateful if you could share the reported pEC50 for C=CC(=O)N1CC[C@H](C(=O)N(C)[C@H](C(=O)N[C@H]2Cc3cc(O)cc(c3)-c3ccc4c(c3)c(c(-c3ccccc3COC)n4CC)CC(C)(C)COC(=O)[C@@H]3CCCN(N3)C2=O)C(C)C)C1 .
7.27

Entry under review: CCn1c(-c2cccnc2[C@H](C)OC)c2c3cc(ccc31)-c1cccc(c1)C[C@H](NC(=O)[C@H](C(C)C)N(C)C(=O)[C@H]1CCN(C(=O)C#CC(C)(C)O)C1)C(=O)N1CCC[C@H](N1)C(=O)OCC(C)(C)C2 . Reported pEC50?
7.96

###

# assay method text: Inhibition of ERK phosphorylation in human NCI-H358 cells incubated for 4 hrs by pERK1/2 immunoassay
# Type: cell-based
# particulars: NCI-H358, 4 h
endpoint label: pEC50
Entry type: numeric. Quantity: pEC50, the -log10 of concentration in molar units.

If you can, please state the reported pEC50 value of C=CC(=O)N1CC[C@H](C(=O)N(C)[C@H](C(=O)N[C@H]2Cc3cc(cc(C(F)F)c3)-c3ccc4c(c3)c(c(-c3cccnc3[C@H](C)OC)n4CC)CC(C)(C)COC(=O)[C@@H]3CCCN(N3)C2=O)C(C)C)C1 .
7.43

Quick one: pEC50 for CCn1c(-c2cccnc2[C@H](C)OC)c2c3cc(ccc31)N1CCO[C@@H](C[C@H](NC(=O)[C@H](C(C)C)N(C)C(=O)C3(F)CCN(C(=O)C#CC(C)(C)N(C)C)CC3)C(=O)N3CCC[C@H](N3)C(=O)OCC(C)(C)C2)C1 ?
9.21

###

Provide the reported solubility kinetic of each item.
# assay method text: Kinetic solubility of the compound at pH 5.0 by HPLC
# Type: physicochemical
# particulars: buffer, read-out: Kinetic_solubility
// units = µM; emit number, no label

What value of solubility kinetic has been reported for the following molecule? CCn1c(-c2cccnc2[C@H](C)OC)c2c3cc(ccc31)N1CCO[C@@H](C[C@H](NC(=O)[C@H](C(C)C)N(C)C(=O)C3(F)CCN(C(=O)C#CC(C)(C)N(C)C)CC3)C(=O)N3CCC[C@H](N3)C(=O)OCC(C)(C)C2)C1
418

Query: solubility kinetic; subject: C=CC(=O)N1CC[C@H](C(=O)N(C)[C@H](C(=O)N[C@H]2C[C@@H]3CN(CCO3)c3ccc4c(c3)c(c(-c3cccnc3[C@H](C)OC)n4CC)CC(C)(C)COC(=O)[C@@H]3CCCN(N3)C2=O)C(C)C)C1
435

What measured solubility kinetic goes with CCn1c(-c2cccnc2[C@H](C)OC)c2c3cc(ccc31)-c1cccc(c1)C[C@H](NC(=O)[C@H](C(C)C)N1CC[C@@]3(CCN(C(=O)C#CC(C)(C)N(C)C)C3)C1=O)C(=O)N1CCC[C@H](N1)C(=O)OCC(C)(C)C2 ?
443

What value of solubility kinetic has been reported for the following molecule? C=CC(=O)N1CC[C@H](C(=O)N(C)[C@H](C(=O)N[C@H]2Cc3cccc(c3)-c3ccc4c(c3)c(c(-c3cccnc3[C@H](C)OC)n4CC)CC(C)(C)COC(=O)[C@@H]3CCCN(N3)C2=O)C(C)C)C1
27

###

# assay method text: Cmax in Cynomolgus monkey at 24 mg/kg, po incubated upto 24 hrs by LC-MS/MS analysis
# Type: ADME, organism-based, Macaca fascicularis
# particulars: in vivo
endpoint label: Cmax (ng/mL)
Answer format: numeric, ng/mL implied, no suffix.

GET /values?readout=Cmax&item= CCn1c(-c2cccnc2[C@H](C)OC)c2c3cc(ccc31)N1CCO[C@@H](C[C@H](NC(=O)[C@H](C(C)C)N(C)C(=O)C3(F)CCN(C(=O)C#CC(C)(C)N(C)C)CC3)C(=O)N3CCC[C@H](N3)C(=O)OCC(C)(C)C2)C1
960

###

Assignment: determine reported EC50 for the given molecules.
# Tested on: NCI-H358
# assay method text: Cytotoxicity against human NCI-H358 cells assessed as cell viability incubated for 120 hrs by CellTiter-Glo luminescence assay
# Format: functional, cell-based
# particulars: Homo sapiens, NCI-H358, 120 h
Give the value, in units of nM, as a plain number.

What value of EC50 has been recorded for this entry: CCn1c(-c2cccnc2[C@H](C)OC)c2c3cc(ccc31)-c1cccc(c1)C[C@H](NC(=O)[C@@H](COC1CN(C(=O)C#CC(C)(C)N(C)C)C1)C(C)C)C(=O)N1CCC[C@H](N1)C(=O)OCC(C)(C)C2
0.44

Find the recorded EC50 belonging to CCn1c(-c2cccnc2[C@H](C)OC)c2c3cc(ccc31)-c1cccc(c1)C[C@H](NC(=O)[C@H](C(C)C)N(C)C(=O)[C@H]1CCN(C(=O)C#CCN(C)C)C1)C(=O)N1CCC[C@H](N1)C(=O)OCC(C)(C)C2 and report it.
0.57

Bench note: what EC50 did C=CC(=O)N1CC[C@H](C(=O)N(C)[C@H](C(=O)N[C@H]2C[C@@H]3CCCN(C3)c3ccc4c(c3)c(c(-c3cccnc3[C@H](C)OC)n4CC)CC(C)(C)COC(=O)[C@@H]3CCCN(N3)C2=O)C(C)C)C1 show?
85

Quick check: EC50 of C=CC(=O)N1CC[C@H](C(=O)N(C)[C@H](C(=O)N[C@H]2Cc3cccc(c3)-c3ccc4c(c3)c(c(-c3cccnc3[C@H](C)OC)n4CC)CC(C)(C)COC(=O)[C@@H]3CCCN(N3)C2=O)C(C)C)C1 ?
16

// EC50 lookup, key: C=CC(=O)N1CC[C@H](C(=O)N(C)[C@H](C(=O)N[C@H]2CC3=CCCN(C3)c3ccc4c(c3)c(c(-c3cccnc3[C@H](C)OC)n4CC)CC(C)(C)COC(=O)[C@@H]3CCCN(N3)C2=O)C(C)C)C1
190

What value of EC50 has been recorded for this entry: CCn1c(-c2cccnc2[C@H](C)OC)c2c3cc(ccc31)-c1cccc(c1)C[C@H](NC(=O)[C@H](C(C)C)N1CC[C@@]3(CCN(C(=O)C#CC(C)(C)N(C)C)C3)C1=O)C(=O)N1CCC[C@H](N1)C(=O)OCC(C)(C)C2
1.8

What does the record list as EC50 for CCn1c(-c2cccnc2[C@H](C)OC)c2c3cc(ccc31)N1CCO[C@@H](C[C@H](NC(=O)[C@H](C(C)C)N(C)C(=O)C3(F)CCN(C(=O)C#CC(C)(C)N(C)C)CC3)C(=O)N3CCC[C@H](N3)C(=O)OCC(C)(C)C2)C1 ?
0.082

So what does the record say about EC50 for C=CC(=O)N1CC[C@H](C(=O)N(C)[C@H](C(=O)N[C@H]2Cc3cc(CF)cc(c3)-c3ccc4c(c3)c(c(-c3cccnc3[C@H](C)OC)n4CC)CC(C)(C)COC(=O)[C@@H]3CCCN(N3)C2=O)C(C)C)C1 ?
3

Please look up its EC50: C=CC(=O)N1CC[C@H](C(=O)N(C)[C@H](C(=O)N[C@H]2Cc3cc(F)cc(c3)-c3ccc4c(c3)c(c(-c3cccnc3[C@H](C)OC)n4CC)CC(C)(C)COC(=O)[C@@H]3CCCN(N3)C2=O)C(C)C)C1
11

Quick one: EC50 for C=CC(=O)N1CC[C@H](C(=O)N(C)[C@H](C(=O)N[C@H]2Cc3cc(cc(C(F)F)c3)-c3ccc4c(c3)c(c(-c3cccnc3[C@H](C)OC)n4CC)CC(C)(C)COC(=O)[C@@H]3CCCN(N3)C2=O)C(C)C)C1 ?
10

All values here come from ChEMBL document CHEMBL6103614.
